# Tested on: PCP-Induced Hyperactivity Responses in Mice
# TEST DESCRIPTION: PCP-induced hyperactivity (open field) in mice;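 also: plus means significant inhibition of PCP hyperactivity at P below 0.05 and minus means none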
# Assay type: in vivo
# MEASUREMENT PARAMETERS: 100 mg/kg Compound + PCP (5 mg/kg; i.p); male C57Bl/6J mice; vs. vehicle + PCP

{"COMPOUND": "CNCC1OCCc2sc(C)cc21 (centres unmarked)", "SYSTEM UNDER TEST": "PCP-Induced Hyperactivity Responses in Mice", "Total Distance Traveled (cm)": "+"}
{"COMPOUND": "CNC[C@@H]1OCCc2sccc21", "SYSTEM UNDER TEST": "PCP-Induced Hyperactivity Responses in Mice", "Total Distance Traveled (cm)": "+"}
{"COMPOUND": "CCc1cc2c(s1)CCOC2CNC (centres unmarked)", "SYSTEM UNDER TEST": "PCP-Induced Hyperactivity Responses in Mice", "Total Distance Traveled (cm)": "+"}
{"COMPOUND": "CCc1cc2c(s1)CCO[C@@H]2CNC", "SYSTEM UNDER TEST": "PCP-Induced Hyperactivity Responses in Mice", "Total Distance Traveled (cm)": "+"}
{"COMPOUND": "NCC1OCCc2sccc21 (centres unmarked)", "SYSTEM UNDER TEST": "PCP-Induced Hyperactivity Responses in Mice", "Total Distance Traveled (cm)": "−"}
{"COMPOUND": "[2H]C([2H])([2H])NC[C@H]1OCCc2sccc21", "SYSTEM UNDER TEST": "PCP-Induced Hyperactivity Responses in Mice", "Total Distance Traveled (cm)": "+"}
{"COMPOUND": "c1cc2c(s1)CCO[C@@H]2[C@@H]1CCCN1", "SYSTEM UNDER TEST": "PCP-Induced Hyperactivity Responses in Mice", "Total Distance Traveled (cm)": "+"}
{"COMPOUND": "CNC[C@@H]1OCCc2sc(C)cc21", "SYSTEM UNDER TEST": "PCP-Induced Hyperactivity Responses in Mice", "Total Distance Traveled (cm)": "+"}
{"COMPOUND": "CNC[C@@H]1OCCc2scc(C)c21", "SYSTEM UNDER TEST": "PCP-Induced Hyperactivity Responses in Mice", "Total Distance Traveled (cm)": "+"}
{"COMPOUND": "CNCC1OCCc2sccc21 (centres unmarked)", "SYSTEM UNDER TEST": "PCP-Induced Hyperactivity Responses in Mice", "Total Distance Traveled (cm)": "+"}
{"COMPOUND": "CNCC1OCCc2c(C)csc21 (centres unmarked)", "SYSTEM UNDER TEST": "PCP-Induced Hyperactivity Responses in Mice", "Total Distance Traveled (cm)": "+"}
{"COMPOUND": "CCc1cc2c(s1)CCO[C@H]2CNC", "SYSTEM UNDER TEST": "PCP-Induced Hyperactivity Responses in Mice", "Total Distance Traveled (cm)": "+"}
{"COMPOUND": "CNC[C@H]1OCCc2sccc21", "SYSTEM UNDER TEST": "PCP-Induced Hyperactivity Responses in Mice", "Total Distance Traveled (cm)": "+"}
{"COMPOUND": "NC[C@H]1OCCc2sccc21", "SYSTEM UNDER TEST": "PCP-Induced Hyperactivity Responses in Mice", "Total Distance Traveled (cm)": "−"}
{"COMPOUND": "CNCC1OCCc2scc(C)c21 (centres unmarked)", "SYSTEM UNDER TEST": "PCP-Induced Hyperactivity Responses in Mice", "Total Distance Traveled (cm)": "+"}
{"COMPOUND": "CNC[C@H]1OCCc2sc(C)cc21", "SYSTEM UNDER TEST": "PCP-Induced Hyperactivity Responses in Mice", "Total Distance Traveled (cm)": "+"}
{"COMPOUND": "NC[C@@H]1OCCc2sccc21", "SYSTEM UNDER TEST": "PCP-Induced Hyperactivity Responses in Mice", "Total Distance Traveled (cm)": "−"}

* * *

# System: PCP-Induced Hyperactivity Responses in Mice
# TEST DESCRIPTION: PCP-induced hyperactivity (open field) in mice;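 also: plus means significant inhibition of PCP hyperactivity at P below 0.05 and minus means none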
# Format: in vivo
# MEASUREMENT PARAMETERS: 1 mg/kg Compound + PCP (5 mg/kg; i.p); male C57Bl/6J mice; vs. vehicle + PCP

{"COMPOUND": "CNC[C@@H]1OCCc2sccc21", "Total Distance Traveled (cm)": "−"}
{"COMPOUND": "c1cc2c(s1)CCO[C@H]2[C@H]1CCCN1", "Total Distance Traveled (cm)": "+"}
{"COMPOUND": "CNC[C@@H]1OCCc2scc(C)c21", "Total Distance Traveled (cm)": "−"}
{"COMPOUND": "CNC[C@H]1OCCc2scc(C)c21", "Total Distance Traveled (cm)": "+"}
{"COMPOUND": "C[C@H](N)[C@@H]1OCCc2ccsc21", "Total Distance Traveled (cm)": "+"}
{"COMPOUND": "NC[C@@H]1OCCc2ccsc21", "Total Distance Traveled (cm)": "−"}
{"COMPOUND": "CNC[C@H]1OCCc2c(C)csc21", "Total Distance Traveled (cm)": "+"}
{"COMPOUND": "CCNC[C@H]1OCCc2sccc21", "Total Distance Traveled (cm)": "+"}
{"COMPOUND": "c1cc2c(s1)[C@@H]([C@H]1CCCN1)OCC2", "Total Distance Traveled (cm)": "+"}
{"COMPOUND": "CNCC1OCCc2sccc21 (stereo not drawn)", "Total Distance Traveled (cm)": "+"}
{"COMPOUND": "CCNC[C@H]1OCCc2ccsc21", "Total Distance Traveled (cm)": "+"}
{"COMPOUND": "Cc1csc2c1CCO[C@@H]2CN", "Total Distance Traveled (cm)": "−"}

These entries and their values trace back to patent US11129807B2.
